Test system: SK-MEL-2 melanoma
measurementProtocol: NCI-60 one-dose screen, 48 h (100 = growth as untreated, 0 = no growth, -100 = all killed)
conditionLabel: 10 µM unless noted
Compounds without any hit were thinned out: in the full panel of roughly 83,000, 20% have a hit.
recordedEndpoint: growth (%)
Answers are plain numbers, in %.

For orientation, consider the following solved cases.
substanceSmiles | testedSystem | growth (%)
Cc1cc2cc3cc(C)c(N(C)C)cc3nc2cc1N(C)C | SK-MEL-2 melanoma | -31.8
NS(=O)(=O)N(c1cc(C(F)(F)F)cc(C(F)(F)F)c1)C1CCN(Cc2ccc(F)cc2)CC1 | SK-MEL-2 melanoma | 74.2
O=S(=O)(NCCCNc1cc(-c2cn(-c3ccccc3)nc2-c2ccccc2)ccn1)c1ccc(C(F)(F)F)cc1 | SK-MEL-2 melanoma | 79
COc1nc2c(cc1S(=O)(=O)c1ccccc1)CCc1c-2cnn1Cc1ccccc1 | SK-MEL-2 melanoma | 74.3
O=C1NC(=O)C(CC(=O)n2c(-c3ccccc3)nc3ccccc32)C(=O)N1 | SK-MEL-2 melanoma | 101
CC(=O)Nc1ccc2c(c1)c(NC(C)=O)nn2C(=O)Nc1ccc(Cc2ccccc2)cc1 | SK-MEL-2 melanoma | 12.9
O=C(Nc1cccc2c1C(=O)c1cccc(Nc3cccc4c3C(=O)c3cccc(NC(=O)c5ccccc5)c3C4=O)c1C2=O)c1ccccc1 | SK-MEL-2 melanoma | 109
COc1ccc(-c2cn3c(-c4ccc(OC)cc4)cnc3c(Oc3ccc4c(C)cc(=O)oc4c3)n2)cc1 | SK-MEL-2 melanoma | 49.4

# evaluate next
Entry under test: "Cc1cc(Nc2nc(N3CCNCC3)nc3ccccc23)n[nH]1" . Its growth was 53.6

---

Tested on: UACC-257 melanoma
measurementProtocol: NCI-60 one-dose screen, 48 h (100 = growth as untreated, 0 = no growth, -100 = all killed)
conditionLabel: 10 µM unless noted
About 83,000 compounds went through this panel and 20% of them were active in at least one assay; those are over-represented in the sample as a whole.
recordedEndpoint: growth (%)
Answers are plain numbers, in %.

For orientation, consider the following solved cases.
compound | testedSystem | recordedEndpoint | observed
O=[N+]([O-])c1cccc(-c2nc3sccn3c2-c2ccnc(NCCCNS(=O)(=O)c3ccc(Br)cc3)n2)c1 | UACC-257 melanoma | growth | 61.1
O=C1/C(=C/c2ccccc2)CN(CCC(=O)N2C/C(=C\c3ccccc3)C(=O)/C(=C/c3ccccc3)C2)C/C1=C\c1ccccc1 | UACC-257 melanoma | growth | 93.8
COc1ccc(-c2cc(=O)[nH]c3c(OC)c4ccccc4c(OC)c23)cc1 | UACC-257 melanoma | growth | 73.8
O=S(=O)(Nc1ccc(Cl)cc1Cl)c1ccc(-c2cnc(C3CC3)o2)cc1 | UACC-257 melanoma | growth | 55.4
CSc1nc(NCCCNc2ccnc3cc(Cl)ccc23)cc(-c2ccccc2)n1 | UACC-257 melanoma | growth | 68.1

For each listed entry, give its growth.
1. COC(/C=C/c1ccc([N+](=O)[O-])cc1)OC
2. C=C(C[n+]1ccccc1)[C@@H]1CC[C@]2(C(=O)OC)CC[C@]3(C)[C@H](CC[C@@H]4[C@@]5(C)CC[C@H](O)C(C)(C)[C@@H]5CC[C@]43C)[C@@H]12

1. 90.8
2. 100

For each listed entry, give its growth.
1. CC(=O)OC1Oc2cc(C)c(C)cc2-c2oc(=O)c(-c3cc4ccc(N(C)C)cc4oc3=O)cc21 (stereo not given)
2. CCCCNC(=O)NS(=O)(=O)c1ccc(N2N=C(c3cc(C)ccc3C)CC2c2cc(OC)c(OC)c(OC)c2)cc1 (stereo not given)
3. Cc1nn(-c2nc3ccccc3[nH]2)c2c1C(c1ccc3c(c1)OCO3)CC(=O)N2 (stereo not given)
4. Nc1ccc(N2CCOCC2)cc1
5. C=C1CC[C@@H]2[C@](C)(COC(C)=O)[C@H](OC(C)=O)CC[C@@]2(C)[C@@H]1CC(NCc1ccc(F)cc1)C1=CCOC1=O (stereo not given in full)
6. COc1cc2c(c(OC)c1OC)-c1ccc(N=NC(N)=S)c(=O)cc1[C@@H](NC(C)=O)CC2

73.4
59.3
69.1
107
45.8
49.5

For each listed entry, give its growth.
1. O=C1C=CC(Nc2ccccc2[N+](=O)[O-])C1Nc1ccccc1[N+](=O)[O-] (stereo not given)
2. COc1ccc(-c2nc(Nc3cc(C)[nH]n3)c3ccccc3n2)cc1

[28.7, 52]

---

System: RXF 393 renal
measurementProtocol: NCI-60 one-dose screen, 48 h (100 = growth as untreated, 0 = no growth, -100 = all killed)
conditionLabel: 10 µM unless noted
Compounds without any hit were thinned out: in the full panel of roughly 83,000, 20% have a hit.
So basically: growth at 60% or higher? That is class 1. Lower than 60%? That is class 0.

Completed entries (count: 3):
substanceSmiles | category
COc1cc2c(cc1O)CCc1cc(O)cc(OC)c1-2 | class 1
CC1=C(NCCN2CCCC2)C(=O)c2c(OCc3ccc(C(F)(F)F)cc3)cccc2C1=O | class 1
CN(C)CC(=O)Nc1ccc(Cn2nnc3c2C(=O)c2nnn(Cc4ccc(NC(=O)CN(C)C)cc4)c2C3=O)cc1 | class 0

Quick check, growth >= 60%? "COc1ccc(-c2cc(/C=C3\C(=O)Nc4ccc(Cl)cc43)[nH]n2)cc1"
class 0

Quick check, growth >= 60%? "Cc1ccc(-c2nc(/C=N/Nc3cc(C)nc4ccc(Cl)cc34)c(C)o2)cc1"
class 0

Quick check, growth >= 60%? "CC(C)[C@@H]1CC[C@]2(C(=O)NCCCCN=C(N)N)CC[C@]3(C)[C@H](CC[C@@H]4[C@@]5(C)CCC(=O)C(C)(C)[C@@H]5CC[C@]43C)[C@@H]12"
class 1

Quick check, growth >= 60%? "COc1cc2c(c(OC)c1OC)-c1ccc(N=NC(N)=S)c(=O)cc1[C@@H](NC(C)=O)CC2"
class 0

Quick check, growth >= 60%? "COc1ccc2nc(NC(=O)c3cccnc3Nc3cc(OC)c(OC)c(OC)c3)sc2c1"
class 0

---

Tested on: NCI-H226 lung
measurementProtocol: NCI-60 one-dose screen, 48 h (100 = growth as untreated, 0 = no growth, -100 = all killed)
conditionLabel: 10 µM unless noted
About 83,000 compounds went through this panel and 20% of them were active in at least one assay; those are over-represented in the sample as a whole.
So basically: growth at 90% or higher? That is true (1). Lower than 90%? That is false (0).

Quick check, growth >= 90%? C=C1CCC2C3(C)COC(c4cccc(Cl)c4)OC3CCC2(C)C1/C=C/C1=CCOC1=O (stereo not drawn)
false (0)

Quick check, growth >= 90%? "CNC(=O)c1cc(Oc2ccc3nc(NC(=O)Nc4ccc(N5CCC(N(C)C)CC5)cc4)sc3c2)ccn1"
true (1)

---

Tested on: K-562 leukemia
measurementProtocol: NCI-60 one-dose screen, 48 h (100 = growth as untreated, 0 = no growth, -100 = all killed)
conditionLabel: 10 µM unless noted
Compounds without any hit were thinned out: in the full panel of roughly 83,000, 20% have a hit. Active and inactive are the calls of the source. The calls were made as follows: active = growth percent below 10; inactive = the rest.
recordedEndpoint: growth

For orientation, consider the following solved cases.
compound | recordedEndpoint | observed
CN1CCN(Cc2ccc(NC(=O)c3cncc(C#Cc4c(N)ncc5ccc(C#N)cc45)c3)cc2C(F)(F)F)CC1 | growth | -39.3% (active)
Brc1cccc(-c2cc(-c3ccc4c(c3)OCCO4)[nH]n2)c1 | growth | 14.7% [25 µM] (inactive)
CNC(=O)c1cc(Oc2ccc3nc(NC(=O)Nc4ccc(CN5CCOCC5)c(C(F)(F)F)c4)sc3c2)ccn1 | growth | 5.93% (active)

For each listed entry, give its growth.
1. CCOC(=O)C(Cc1cc(I)c(O)c(I)c1)NC(=O)c1ccccc1 (centres undefined)
2. COc1cc(/C=C2\CN(C(=O)CCN3CCC(=NO)CC3)C/C(=C\c3cc(OC)c(OC)c(OC)c3)C2=O)cc(OC)c1OC
3. CS(CCCCN=C=S)=NC(=O)c1c(F)c(F)c(F)c(F)c1F (centres undefined)
4. CNC(=S)N/N=C/CSC/C=N/NC(=S)NC
5. CCC(=O)OCc1cccc(OC)c1

1: 97.1% (inactive); 2: 6.55% (active); 3: 22.5% (inactive); 4: 15.8% (inactive); 5: 62.4% (inactive)

Entry under test: "CC#CC#Cc1cccc(=O)o1" . Its growth was 73.8% (inactive)

---

Tested on: M14 melanoma
measurementProtocol: NCI-60 one-dose screen, 48 h (100 = growth as untreated, 0 = no growth, -100 = all killed)
conditionLabel: 10 µM unless noted
About 83,000 compounds went through this panel and 20% of them were active in at least one assay; those are over-represented in the sample as a whole.
Assign growth to each entry below.
Give bare numbers, in %.

substanceSmiles | observed
COc1ccc(C(=O)c2sc3nc(-c4ccccc4OC)ccc3c2N)cc1OC | 50

For each listed entry, give its growth.
1. O=C(CN1CCN(c2cc3c(cc2F)c(=O)c(C(=O)O)cn3C2CC2)CC1)Nc1nc(-c2ccccc2)cs1
2. C(=N\Nc1nnn(Cc2ccccc2)n1)/c1ccccc1

1: 76; 2: 42

For each listed entry, give its growth.
1. CCn1cc2c(cc1=O)-c1nc3ccccc3c3ccnc(c13)C2=O
2. Clc1nc(Cl)c2c3c(sc2n1)CCCC3

[28.9, 21.1]
